System: HCT116 cells
experiment_notes: Inhibition of proliferation of the human colon tumor line HCT116 ([14C]-thymidine incorporation)
Type: cell-based
condition_parameters: Homo sapiens, HCT-116, 48 h, 48 hours at 37° C., read-out: Inhibition of HCT116 proliferation IC 50 (μm)
experimental_readout: pIC50
# pIC50 is unitless: minus log10 of the molar concentration; print number only

Sample answers from the record:
COc1cccc(-n2nc(C)cc2C(=O)N2CCN(c3cc(Cl)ccc3C)CC2)c1	6.41
Cc1cccc(-n2nc(C)cc2C(=O)N2CCN(c3ccccc3)CC2)c1	7.33
CNCCNC(=O)c1cccc(N2CCN(C(=O)c3cc(C)nn3-c3ccccc3)CC2)c1	5.93
Cc1cccc(-n2nc(C)cc2C(=O)N2CCN(c3ccc(Cl)c(Cl)c3)CC2)c1	7.12
Cc1cccc(-n2nc(C)cc2C(=O)N2CCN(c3ccccc3C)CC2)c1	6.93
Cc1cccc(-n2nc(C)cc2C(=O)N2CCN(c3ccc4c(c3)OCCO4)CC2)c1	6.86

response.value for `O=C(c1cc(-c2cccnc2)nn1-c1ccccc1)N1CCN(c2cccc(Cl)c2)CC1` (field: pIC50) = 6.63

Value of measured pIC50 for the entry `Cc1cc(C(=O)N2CCN(c3nccs3)CC2)n(-c2ccccc2)n1` : 5.49

The recorded pIC50 for entry `CCOc1ccccc1N1CCN(C(=O)c2cc(C)nn2-c2cccc(F)c2)CC1` equals 6.80

Entry `Cc1cc(C(=O)N2CCN(c3cccc(Cl)c3)CC2)n(-c2ncccc2C#N)n1` , pIC50 reported as 7.71

// pIC50 value for `COc1ccc(-n2nc(C)cc2C(=O)N2CCN(c3cccc(OC)c3)CC2)cc1` : 6.93

Quick note, pIC50 for `Cc1cc(C(=O)N2CCN(c3cccc(C)c3C)CC2)n(-c2cccc(F)c2)n1` landed at 7.49

Form field pIC50, entry `Cc1cc(C(=O)N2CCN(c3cc(Cl)ccc3C)CC2)n(-c2ccccc2)n1` : 6.77

Reported pIC50 ( `COc1cc(OC)cc(N2CCN(C(=O)c3cc(-c4ccoc4)nn3-c3ccccc3)CC2)c1` ) = 7.73

Reported pIC50 ( `Cc1cccc(N2CCN(C(=O)c3cc(C)nn3-c3ccccc3)CC2)n1` ) = 8.26

pIC50 measured on `Cc1cc(C(=O)N2CCN(c3cccc(OC(F)(F)F)c3)CC2)n(-c2ccccc2)n1` = 7.92

pIC50 measured on `Cc1cc(C(=O)N2CCN(c3ccnc4ccccc34)CC2)n(-c2ccccc2)n1` = 8.07

// `Cc1ccc(-n2nc(C)cc2C(=O)N2CCN(c3ccc(Cl)c(Cl)c3)CC2)cc1` : pIC50 value = 5.97

----------
System: HCT116 cells
experiment_notes: Inhibition of proliferation of the human colon tumor line HCT116 ([14C]-thymidine incorporation)
Assay type: cell-based
condition_parameters: Homo sapiens, HCT-116, 48 h, 48 hours at 37° C., read-out: Inhibition of HCT116 proliferation IC 50 (μm)
Measured pIC50, listed per entry for reference.
In textbook form, pIC50 equals minus log to base ten of the concentration in mol/L.

COc1cc(OC)cc(N2CCN(C(=O)c3cc(-c4ccc[nH]4)nn3-c3ccccc3)CC2)c1	7.98

Looking up `Cc1cc(C(=O)N2CCN(c3ccccc3C)CC2)n(-c2ccccc2F)n1` , I see its pIC50 listed as 6.62

// `Cc1cc(C(=O)N2CCN(c3ccc(Br)c(Cl)c3)CC2)n(-c2ccccc2)n1` : pIC50 value = 6.98

The molecule listed as `Cc1cc(C(=O)N2CCN(c3ccc(C)c(Cl)c3)CC2)n(-c2ccccc2)n1` has a reported pIC50 of 7.66

pIC50 for `Cc1cc(C(=O)N2CCN(c3ccc(C)c(C)c3)CC2)n(-c2cccc(F)c2)n1` is 6.80

Looking up `Cc1cc(C(=O)N2CCN(c3cccnc3)CC2)n(-c2cccc(F)c2)n1` , I see its pIC50 listed as 7.39
